Assembled from different publications: pIC50 for UniProtKB P00533.
Keep it numeric: pIC50 is minus log10 of the concentration in mol/L.

Previously resolved entries follow.
compound | value
CNS(=O)(=O)c1cccc(Nc2cc(N(C)c3cccc(C)c3)ncn2)c1 | 7.70
COC(=O)c1ccc(S(=O)(=O)Oc2ccc(/C=C/[N+](=O)[O-])cc2)cc1 | 5.82
C=CC(=O)Nc1ccc2ncnc(Nc3cc(F)c(Cl)c(Cl)c3)c2c1 | 10.43
CN(CC(O)CO)c1c(Br)cccc1Nc1ncnc2ccncc12 (stereo not given) | 8.49
COc1cc2c(Nc3ccc(F)cc3)ncnc2cc1OCCOCCNC(=O)Cn1cnc([N+](=O)[O-])n1 | 7.78
COc1c(Br)cc(/C=C2\C(=O)Nc3ccccc32)cc1C(C)(C)C | 4.72

Next:
// fetch UniProtKB P00533 pIC50 for C=CC(=O)Nc1cc(Nc2nccc(-c3cn(C(C)=O)c4ccccc34)n2)c(OC)cc1N(C)CCN(C)C
7.81
